Entry source: patent US6352958B1

Test system: soybean (Glycine max var. Winchester)
Assay: Postemergence herbicidal activity, soybean
Assay type: in vivo
Conditions: rate of application 0.3 Kg/Ha, rated after 12-17 days
Kind request: treat 90% as inclusive, so Postemergence herbicidal activity (% control) SOY at 90% or higher is Satisfied, anything lower is Not satisfied.

# example entries with known answers
compound: Cn1c(C(F)(F)F)cc(=O)n(-c2ccc(Cl)c3cc(C=NO)oc23)c1=O
target: soybean (Glycine max var. Winchester)
category: Not satisfied
//
compound: CC(C)c1nc2c(-n3c(=O)cc(C(F)(F)F)n(C)c3=O)c(F)cc(Cl)c2[nH]1
target: soybean (Glycine max var. Winchester)
category: Satisfied
//
compound: C=Cc1cc2c(Cl)cc(F)c(-n3c(=O)cc(C(F)(F)F)n(C)c3=O)c2o1
target: soybean (Glycine max var. Winchester)
category: Satisfied
//
compound: Cn1c(C(F)(F)F)cc(=O)n(-c2ccc(Cl)c3cc(CBr)oc23)c1=O
target: soybean (Glycine max var. Winchester)
category: Not satisfied
//
compound: Cn1c(C(F)(F)F)cc(=O)n(-c2c(F)cc(Cl)c3nc(CCc4ccccc4)[nH]c23)c1=O
target: soybean (Glycine max var. Winchester)
category: Satisfied
//
compound: Cn1c(C(F)(F)F)cc(=O)n(-c2c(F)cc(Cl)c3[nH]c(C(F)F)nc23)c1=O
target: soybean (Glycine max var. Winchester)
category: Satisfied

Problem: Determine whether this compound has Postemergence herbicidal activity (% control) SOY no lower than 90%: CNC(=O)OCCc1cc2c(Cl)cc(F)c(-n3c(=O)cc(C(F)(F)F)n(C)c3=O)c2o1
Result: Satisfied

Problem: Determine whether this compound has Postemergence herbicidal activity (% control) SOY no lower than 90%: Cn1c(C(F)(F)F)cc(=O)n(-c2c(F)cc(Cl)c3cc(CCF)oc23)c1=O
Result: Satisfied

Problem: Determine whether this compound has Postemergence herbicidal activity (% control) SOY no lower than 90%: Cc1nc2c(-n3c(=O)cc(C(F)(F)F)n(C)c3=O)c(F)cc(Cl)c2o1
Result: Satisfied

Problem: Determine whether this compound has Postemergence herbicidal activity (% control) SOY no lower than 90%: COC(=O)CCc1cc2c(Cl)cc(F)c(-n3c(=O)cc(C(F)(F)F)n(C)c3=O)c2o1
Result: Satisfied
